Below, each entry is listed with its recorded Compounds detected by LC-MS: 2a-e, relative percentage.
Test system: PanK, PPAT and DPCK
Experiment: Biosynthetic in vitro assay with a mixture of PanK, PPAT and DPCK enzymes
Assay type: biochemical
Conditions: substrate 5.0 mM, 3 hours at room temperature; HPLC, approximate ± 5%, duplicate
The reply should be a number in %, with the unit left off.

# example entries with known answers
compound	reading
CC(C)(CO)[C@@H](O)C(=O)NCCC(=O)NCCSCCCCCC(=O)NC[C@H]1O[C@H](O[C@H]2[C@H](O)[C@@H](O)[C@H](N)C[C@@H]2N)[C@H](N)[C@@H](O)[C@@H]1O [Compound 3e]	80
CC(C)(CO)[C@@H](O)C(=O)NCCC(=O)NCCSCCCC(=O)NC[C@H]1O[C@H](O[C@H]2[C@H](O)[C@@H](O)[C@H](N)C[C@@H]2N)[C@H](N)[C@@H](O)[C@@H]1O [Compound 3c]	55
CC(C)(CO)[C@@H](O)C(=O)NCCC(=O)NCCSCCCCC(=O)NC[C@H]1O[C@H](O[C@H]2[C@H](O)[C@@H](O)[C@H](N)C[C@@H]2N)[C@H](N)[C@@H](O)[C@@H]1O [Compound 3d]	90

Kindly consider the entry below.
Record summary for CC(C)(CO)[C@@H](O)C(=O)NCCC(=O)NCCSCCC(=O)NC[C@H]1O[C@H](O[C@H]2[C@H](O)[C@@H](O)[C@H](N)C[C@@H]2N)[C@H](N)[C@@H](O)[C@@H]1O [Compound 3b] : reported Compounds detected by LC-MS: 2a-e, relative percentage = 10

* * *

System: PanK, PPAT and DPCK
Experiment: Biosynthetic in vitro assay with a mixture of PanK, PPAT and DPCK enzymes
Assay type: biochemical
Conditions: substrate 5.0 mM, 3 hours at room temperature; HPLC, approximate ± 5%, duplicate
property: Compounds detected by LC-MS: 7a-e, relative percentage (%)
The reply should be a number in %, with the unit left off.

compound	readingUnit	reading
CC(C)(CO)[C@@H](O)C(=O)NCCC(=O)NCCSCC(=O)NC[C@H]1O[C@H](O[C@H]2[C@H](O)[C@@H](O)[C@H](N)C[C@@H]2N)[C@H](N)[C@@H](O)[C@@H]1O [Compound 3a]	%	25
CC(C)(CO)[C@@H](O)C(=O)NCCC(=O)NCCSCCCC(=O)NC[C@H]1O[C@H](O[C@H]2[C@H](O)[C@@H](O)[C@H](N)C[C@@H]2N)[C@H](N)[C@@H](O)[C@@H]1O [Compound 3c]	%	40
CC(C)(CO)[C@@H](O)C(=O)NCCC(=O)NCCSCCCCCC(=O)NC[C@H]1O[C@H](O[C@H]2[C@H](O)[C@@H](O)[C@H](N)C[C@@H]2N)[C@H](N)[C@@H](O)[C@@H]1O [Compound 3e]	%	20
CC(C)(CO)[C@@H](O)C(=O)NCCC(=O)NCCSCCC(=O)NC[C@H]1O[C@H](O[C@H]2[C@H](O)[C@@H](O)[C@H](N)C[C@@H]2N)[C@H](N)[C@@H](O)[C@@H]1O [Compound 3b]	%	70

Record summary for CC(C)(CO)[C@@H](O)C(=O)NCCC(=O)NCCSCCCCC(=O)NC[C@H]1O[C@H](O[C@H]2[C@H](O)[C@@H](O)[C@H](N)C[C@@H]2N)[C@H](N)[C@@H](O)[C@@H]1O [Compound 3d] : reported Compounds detected by LC-MS: 7a-e, relative percentage = 10
